# experimental_system: Cytochrome P450 2C19 (Homo sapiens) (UniProt P33261)
# Sequence (P33261 whole entry, looked up): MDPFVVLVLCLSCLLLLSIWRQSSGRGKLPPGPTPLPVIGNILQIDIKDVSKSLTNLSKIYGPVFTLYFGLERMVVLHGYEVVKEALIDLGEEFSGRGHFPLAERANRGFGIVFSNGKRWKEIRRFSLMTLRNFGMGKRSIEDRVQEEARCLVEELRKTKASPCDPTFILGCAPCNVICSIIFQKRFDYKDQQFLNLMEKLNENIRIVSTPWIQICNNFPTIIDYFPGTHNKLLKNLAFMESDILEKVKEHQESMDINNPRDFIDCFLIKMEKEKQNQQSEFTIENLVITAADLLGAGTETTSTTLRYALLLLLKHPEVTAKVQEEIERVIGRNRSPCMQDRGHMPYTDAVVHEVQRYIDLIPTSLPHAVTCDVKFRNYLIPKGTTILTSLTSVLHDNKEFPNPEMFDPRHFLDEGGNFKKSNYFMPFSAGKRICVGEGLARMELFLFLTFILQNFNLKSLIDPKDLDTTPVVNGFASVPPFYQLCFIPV
# method_description: Cytochrome panel assay with activity outcomes
# condition_context: recombinant CYP, pro-luciferin dealkylation, luminescence, p450-cyp2c19; series mostly up to 57.1 µM
Out of some 16,000 compounds screened, about 5,800 (36%) were called active. About 23% were inconclusive and are not listed. The call rests on the fitted dose curve; in most records, active means well fitted curve in the direction sought with a large enough effect; inconclusive means small, poorly fitted or top-dose-only effect, or effect the other way; inactive means no such curve, though single readings can be large or run the other way. Some of the results follow.
Result category, one only: active, inactive

Q: Give the logged outcome of this assay for the following compound: `O=C(c1ccco1)N1CCC[C@@]2(CCN(C(c3ccccc3)c3ccccc3)C2)C1`
Result: inactive

Q: Give the logged outcome of this assay for the following compound: `CCn1ccnc1C[C@@H]1COc2ccccc2O1`
Result: active

Q: Give the logged outcome of this assay for the following compound: `COc1ccc(CC(=O)NCCN2CCCC2)cc1`
Result: inactive

Q: Give the logged outcome of this assay for the following compound: `COc1ccc([C@@H](C)c2cc3c(cc2O)OCO3)cc1`
Result: active

Q: Give the logged outcome of this assay for the following compound: COc1ccc(CN2C(=O)c3ccccc3C(/C=N\OCc3ccc(F)cc3)C2=O)cc1 (configuration not stated)
Result: active

Q: Give the logged outcome of this assay for the following compound: CC1CN(C(=O)CN2C(=O)NC3(CCCCCC3)C2=O)CC(C)O1 (configuration not stated)
Result: inactive

Q: Give the logged outcome of this assay for the following compound: `CSC(=NC#N)N1CCN(c2ccc(Cl)cc2)CC1`
Result: active

Q: Give the logged outcome of this assay for the following compound: c1ccc(C2OCC3(CO2)COC(c2ccccc2)OC3)cc1 (configuration not stated)
Result: active

Q: Give the logged outcome of this assay for the following compound: O=C(NC(NCc1ccccc1)C(Cl)(Cl)Cl)c1cccnc1 (configuration not stated)
Result: active

Q: Give the logged outcome of this assay for the following compound: `C[n+]1ccccc1/C=N\O`
Result: inactive

Q: Give the logged outcome of this assay for the following compound: `Cc1ccc(C)c(S(=O)(=O)NCc2ccc(C(=O)N3CCC(Cc4ccccc4)CC3)cc2)c1`
Result: active

Q: Give the logged outcome of this assay for the following compound: `O=C(CN(Cc1ccccc1)S(=O)(=O)c1ccc2c(c1)OCCO2)N/N=C/c1ccc(F)cc1`
Result: active

Q: Give the logged outcome of this assay for the following compound: `CCOC(=O)C1=C(C)NC(C)=C(C(=O)OC)[C@@H]1c1cccc([N+](=O)[O-])c1`
Result: active

Q: Give the logged outcome of this assay for the following compound: `CCOC(=O)C1=C(C)NC(C)=C(C(=O)OC)[C@H]1c1cccc([N+](=O)[O-])c1`
Result: active

Q: Give the logged outcome of this assay for the following compound: `C#CCN1C(C)=C(C(=O)OC)[C@@H](c2cccc([N+](=O)[O-])c2)C(C(=O)OCC)=C1C`
Result: active

Q: Give the logged outcome of this assay for the following compound: `Cc1noc(N)c1C(=O)Nc1ccc(F)cc1`
Result: inactive

Q: Give the logged outcome of this assay for the following compound: N#CC1=C(SCC(N)=O)NC2=C(C(=O)c3ccccc32)C1c1ccc(Cl)cc1 (configuration not stated)
Result: active

----------
# experimental_system: Cytochrome P450 2C19 (Homo sapiens) (UniProt P33261)
# method_description: Cytochrome panel assay with activity outcomes
# condition_context: recombinant CYP, pro-luciferin dealkylation, luminescence, p450-cyp2c19; series mostly up to 57.1 µM
About 5,800 (36%) of roughly 16,000 compounds were called active. About 23% were inconclusive and are not listed. This is one part of the list.
endpoint_label: AC50

Illustrative cases are given below, each with its answer.
| compound | endpoint_label | meas_value |
| --- | --- | --- |
| CCCCCCCCCCCC1=C(O)C(=O)C=C(O)C1=O | AC50 | inactive |
| CCCc1cc(=O)[nH]c(SCc2cc(Cl)ccc2OC(F)F)n1 | AC50 | 2.82 µM (active) |
| CN(C)C(=O)c1ccc(-c2ccc3ncnc(N4CCOCC4)c3c2)cc1 | AC50 | inactive |
| Cc1ccc(-n2cc(C(=O)c3ccc4ccccc4c3O)cn2)cc1 | AC50 | inactive |
| CC(C)NC[C@H](O)c1ccc(NS(C)(=O)=O)cc1 | AC50 | inactive |

Q: Name the reported AC50 value associated with the compound `CC(C)CN1CC2(CCN(C(=O)c3cccc(F)c3)CC2)C1`
Result: inactive

Q: Name the reported AC50 value associated with the compound `CCCOc1ccccc1-c1nc2n[nH]nc2c(=O)[nH]1`
Result: inactive

Q: Name the reported AC50 value associated with the compound `Cc1cc(C)c(C(N)=O)c(SCC(=O)c2ccc(Cl)cc2)n1`
Result: 8.91 µM (active)

Q: Name the reported AC50 value associated with the compound CCOC(=O)C(NC(C)=O)C(OC(C)=O)c1cccc(N(CCO)CCO)c1 (centres undefined)
Result: inactive

Q: Name the reported AC50 value associated with the compound `Cc1cc(C)cc(C(=N)c2ccccc2Cc2cccc3ccccc23)c1`
Result: 1.58 µM (active)
